tested on: Streptococcus sp.; assay: in vitro antibacterial evaluation, MIC by broth dilution; assay type: cell-based; settings: Streptococcus pyogenes (GC 4563); broth dilution, 18 hours at 35° C.
propertyMeasured: MIC Streptococcus pyogenes (GC 4563)

Input line: Using known records, supply MIC Streptococcus pyogenes (GC 4563) for COc1cccc(C2OCC3OC(OC4C(CO)OC(Oc5ccc(CC6NC(=O)C(C(C)c7ccccc7)NC(=O)CNC(=O)C(CO)NC(=O)C(C(O)C7CNC(=N)N7C7OC(CO)C(O)C(O)C7O)NC(=O)C(C(O)C7CNC(=N)N7)NC6=O)cc5)C(O)C4O)C(O)C(O)C3O2)c1 (centres unmarked)
Output line: 0.25 µg/mL

Input line: Using known records, supply MIC Streptococcus pyogenes (GC 4563) for CC(c1ccccc1)C1NC(=O)CNC(=O)C(CO)NC(=O)C(C(O)C2CNC(=N)N2C2OC(CO)C(O)C(O)C2O)NC(=O)C(C(O)C2CNC(=N)N2)NC(=O)C(Cc2ccc(OC3OC(CO)C(OC4OC5COC(CCc6ccccc6)OC5C(O)C4O)C(O)C3O)cc2)NC1=O (centres unmarked)
Output line: 0.12 µg/mL

###

For each entry below, report its MIC Streptococcus pneumoniae (ATCC 6301) value.
tested on: Streptococcus sp.; assay: in vitro antibacterial evaluation, MIC by broth dilution; type: cell-based; settings: broth dilution, 18 hours at 35° C.
Give your result in µg/mL as a bare value.

Input line: Using known records, supply MIC Streptococcus pneumoniae (ATCC 6301) for CC(c1ccccc1)C1NC(=O)CNC(=O)C(CO)NC(=O)C(C(O)C2CN(Cc3ccccc3)C(=NCc3ccccc3)N2C2OC(CO)C(O)C(O)C2O)NC(=O)C(C(O)C2CN(Cc3ccccc3)C(=NCc3ccccc3)N2Cc2ccccc2)NC(=O)C(Cc2ccc(OC3OC(CO)C(OC4OC5COC6(OC5C(O)C4O)C4CC5CC(C4)CC6C5)C(O)C3O)cc2)NC1=O (stereo not drawn) [Example 79]
Output line: 4

Input line: Using known records, supply MIC Streptococcus pneumoniae (ATCC 6301) for CC(C)=CCCC(C)=CCCC(C)=CCOc1cccc(C2OCC3OC(OC4C(CO)OC(Oc5ccc(CC6NC(=O)C(C(C)c7ccccc7)NC(=O)CNC(=O)C(CO)NC(=O)C(C(O)C7CNC(=N)N7C7OC(CO)C(O)C(O)C7O)NC(=O)C(C(O)C7CNC(=N)N7)NC6=O)cc5)C(O)C4O)C(O)C(O)C3O2)c1 (stereo not drawn) [Example 185]
Output line: 0.12

Input line: Using known records, supply MIC Streptococcus pneumoniae (ATCC 6301) for COc1ccc2cc(C3OCC4OC(OC5C(CO)OC(Oc6ccc(CC7NC(=O)C(C(C)c8ccccc8)NC(=O)CNC(=O)C(CO)NC(=O)C(CC8CNC(=N)N8C8OC(CO)C(O)C(O)C8O)NC(=O)C(CC8CNC(=N)N8)NC7=O)cc6)C(O)C5O)C(O)C(O)C4O3)ccc2c1 (stereo not drawn) [Example 190]
Output line: 8

###

system: Enterococcus sp.; assay: in vitro antibacterial evaluation, MIC by broth dilution; assay type: cell-based; settings: strain GC 4552; broth dilution, 18 hours at 35° C.
Checkbox rule: MIC Enterococcus faecalis (GC 4552) lower than 8 µg/mL = condition met; MIC Enterococcus faecalis (GC 4552) not lower than 8 µg/mL = condition not met.

Input line: Decide: MIC Enterococcus faecalis (GC 4552) of CC(c1ccccc1)C1NC(=O)CNC(=O)C(CO)NC(=O)C(C(O)C2CNC(=N)N2C2OC(CO)C(O)C(O)C2O)NC(=O)C(C(O)C2CNC(=N)N2)NC(=O)C(Cc2ccc3oc(-c4ccccc4OC4OC(CO)C(O)C(O)C4O)nc3c2)NC1=O (centres unmarked) [Example 36] strictly below 8 µg/mL?
Output line: condition not met

Input line: Decide: MIC Enterococcus faecalis (GC 4552) of CC(c1ccccc1)C1NC(=O)CNC(=O)C(CO)NC(=O)C(C(O)C2CNC(=N)N2C2OC(CO)C(O)C(O)C2O)NC(=O)C(C(O)C2CNC(=N)N2)NC(=O)C(Cc2ccc(OC3OC(CO)C(OC4OC5COC(c6cccc(Oc7ccccc7)c6)OC5C(O)C4O)C(O)C3O)cc2)NC1=O (centres unmarked) [Example 170] strictly below 8 µg/mL?
Output line: condition met

Input line: Decide: MIC Enterococcus faecalis (GC 4552) of CC(c1ccccc1)C1NC(=O)CNC(=O)C(CO)NC(=O)C(C(O)C2CNC(=N)N2C2OC(CO)C(O)C(O)C2O)NC(=O)C(C(O)C2CNC(=N)N2)NC(=O)C(Cc2ccc(O)c(NC(=S)Nc3cc(C(F)(F)F)cc(C(F)(F)F)c3)c2)NC1=O (centres unmarked) [Example 24] strictly below 8 µg/mL?
Output line: condition not met

Input line: Decide: MIC Enterococcus faecalis (GC 4552) of CC(c1ccccc1)C1NC(=O)CNC(=O)C(CO)NC(=O)C(C(O)C2CNC(=N)N2C2OC(CO)C(O)C(O)C2O)NC(=O)C(C(O)C2CNC(=N)N2)NC(=O)C(Cc2ccc(OC3OC(CO)C(OC4OC5COC(c6ccc7ccccc7c6)OC5C(O)C4O)C(O)C3O)cc2)NC1=O (centres unmarked) [Example 145] strictly below 8 µg/mL?
Output line: condition met

Input line: Decide: MIC Enterococcus faecalis (GC 4552) of COc1cc(OC)cc(C2OC3C(OC4C(CO)OC(Oc5ccc(CC6NC(=O)C(C(C)c7ccccc7)NC(=O)CNC(=O)C(CO)NC(=O)C(C(O)C7CNC(=N)N7C7OC(CO)C(O)C(O)C7O)NC(=O)C(C(O)C7CNC(=N)N7)NC6=O)cc5)C(O)C4O)OC(CO)C(O)C3O2)c1 (centres unmarked) [Example 150a] strictly below 8 µg/mL?
Output line: condition not met

Input line: Decide: MIC Enterococcus faecalis (GC 4552) of COc1cccc(C2OC3C(OC4C(CO)OC(Oc5ccc(CC6NC(=O)C(C(C)c7ccccc7)NC(=O)CNC(=O)C(CO)NC(=O)C(C(O)C7CNC(=N)N7C7OC(CO)C(O)C(O)C7O)NC(=O)C(C(O)C7CNC(=N)N7)NC6=O)cc5)C(O)C4O)OC(CO)C(O)C3O2)c1 (single isomer, unassigned) [Example 137b] strictly below 8 µg/mL?
Output line: condition not met

Input line: Decide: MIC Enterococcus faecalis (GC 4552) of CC(c1ccccc1)C1NC(=O)CNC(=O)C(CO)NC(=O)C(C(O)C2CNC(=N)N2C2OC(CO)C(O)C(O)C2O)NC(=O)C(C(O)C2CNC(=N)N2)NC(=O)C(Cc2ccc(OC3OC(CO)C(OC4OC5COC(c6ccc(S(C)(=O)=O)cc6)OC5C(O)C4O)C(O)C3O)cc2)NC1=O (centres unmarked) [Example 157] strictly below 8 µg/mL?
Output line: condition not met

Input line: Decide: MIC Enterococcus faecalis (GC 4552) of CC(c1ccccc1)C1NC(=O)CNC(=O)C(CO)NC(=O)C(C(O)C2CNC(=N)N2C2OC(CO)C(O)C(O)C2O)NC(=O)C(C(O)C2CNC(=N)N2)NC(=O)C(Cc2ccc(OC3OC(CO)C(OC4OC5COC(c6cccc(Cl)c6)OC5C(O)C4O)C(O)C3O)cc2)NC1=O (centres unmarked) [Example 138] strictly below 8 µg/mL?
Output line: condition met

Input line: Decide: MIC Enterococcus faecalis (GC 4552) of CC(c1ccccc1)C1NC(=O)CNC(=O)C(CO)NC(=O)C(C(O)C2CNC(=N)N2C2OC(CO)C(O)C(O)C2O)NC(=O)C(C(O)C2CNC(=N)N2)NC(=O)C(Cc2ccc(O)c(NC=O)c2)NC1=O (centres unmarked) [Example 18] strictly below 8 µg/mL?
Output line: condition not met

Input line: Decide: MIC Enterococcus faecalis (GC 4552) of CC(c1ccccc1)C1NC(=O)CNC(=O)C(CO)NC(=O)C(C(O)C2CNC(=N)N2C2OC(CO)C(O)C(O)C2O)NC(=O)C(C(O)C2CNC(=N)N2)NC(=O)C(Cc2ccc(OC3OC(CO)C(OC4OC(CO)C(O)C5OC(c6ccc(-c7ccsc7)cc6)OC45)C(O)C3O)cc2)NC1=O (centres unmarked) [Example 164a] strictly below 8 µg/mL?
Output line: condition not met

Input line: Decide: MIC Enterococcus faecalis (GC 4552) of CC(c1ccccc1)C1NC(=O)CNC(=O)C(CO)NC(=O)C(C(O)C2CNC(=N)N2C2OC(CO)C(O)C(O)C2O)NC(=O)C(C(O)C2CNC(=N)N2)NC(=O)C(Cc2ccc(OC3OC(CO)C(OC4OC5COC(c6cccc(OCc7ccc([N+](=O)[O-])cc7)c6)OC5C(O)C4O)C(O)C3O)cc2)NC1=O (centres unmarked) [Example 182] strictly below 8 µg/mL?
Output line: condition not met

###

tested on: Staphylococcus sp.; assay: in vitro antibacterial evaluation, MIC by broth dilution; format: cell-based; settings: broth dilution, 18 hours at 35° C.; strain SMITH GC 4543
Numbered stars: 1 amine (or outer) side, 2 acyl side, 3 side chain; on linkers, the order of the positions; unused ones are H or OH. Square brackets hold non-standard residues; d marks the D form. Peptide text beside a SMILES is read from it. * marks the point of attachment. ξ: configuration not given here. X1 = N=C1NCC(C(O)C(N[*:1])C(=O)[*:2])N1C1OC(CO)C(O)C(O)C1O; ξEnduracididine(βξ-OH,4'ξ) = N=C1NCC(C(O)C(N)C(=O)O)N1; ξPhe(4-Cl,βξ-Me) = CC(c1ccc(Cl)cc1)C(N)C(=O)O; X2 = OCC1OC(OC2C(CO)OC(*)C(O)C2O)C(O)C(O)C1O
For each entry below, report its MIC Staphylococcus aureus-SMITH (GC 4543) value.

Input line: Using known records, supply MIC Staphylococcus aureus-SMITH (GC 4543) for CC(c1ccc(Cl)cc1)C1NC(=O)CNC(=O)C(CO)NC(=O)C(C(O)C2CNC(=N)N2C2OC(CO)C(O)C(O)C2O)NC(=O)C(C(O)C2CNC(=N)N2)NC(=O)C(Cc2ccc(OC3OC(CO)C(OC4OC(CO)C(O)C(O)C4O)C(O)C3O)cc2)NC1=O (stereo not drawn) [Example 262a] (cyclo(G[ξPhe(4-Cl,βξ-Me)]Y(X2)[ξEnduracididine(βξ-OH,4'ξ)][X1]S); configuration not given here)
Output line: 64 µg/mL

Input line: Using known records, supply MIC Staphylococcus aureus-SMITH (GC 4543) for N=C1NCC(C(O)C2NC(=O)C(Cc3ccc(O)cc3)NC(=O)C(Cc3ccccc3)NC(=O)CNC(=O)C(CO)NC(=O)C(C(O)C3CNC(=N)N3C3OC(CO)C(O)C(O)C3O)NC2=O)N1 (stereo not drawn) [Example 279a] (cyclo(GFY[ξEnduracididine(βξ-OH,4'ξ)][X1]S); configuration not given here)
Output line: >64 µg/mL

Input line: Using known records, supply MIC Staphylococcus aureus-SMITH (GC 4543) for CC(C)CC(=O)OC1C(OC2C(CO)OC(Oc3ccc(CC4NC(=O)C(C(C)c5ccccc5)NC(=O)CNC(=O)C(CO)NC(=O)C(CC5CNC(=N)N5C5OC(CO)C(O)C(O)C5O)NC(=O)C(CC5CNC(=N)N5)NC4=O)cc3)C(O)C2O)OC(CO)C(O)C1O (stereo not shown) [Example 277b]
Output line: >64 µg/mL

Input line: Using known records, supply MIC Staphylococcus aureus-SMITH (GC 4543) for CC(c1ccccc1)C1NC(=O)CNC(=O)C(CO)NC(=O)C(C(O)C2CNC(=N)N2C2OC(CO)C(O)C(O)C2O)NC(=O)C(C(O)C2CNC(=N)N2)NC(=O)C(Cc2ccc(OC3OC(CO)C(OC4OC5COC(c6ccc(C(=O)O)cc6)OC5C(O)C4O)C(O)C3O)cc2)NC1=O (stereo not shown)
Output line: >64 µg/mL

Input line: Using known records, supply MIC Staphylococcus aureus-SMITH (GC 4543) for CCCCOC(=O)CCC1OCC2OC(OC3C(CO)OC(Oc4ccc(CC5NC(=O)C(C(C)c6ccccc6)NC(=O)CNC(=O)C(CO)NC(=O)C(C(O)C6CNC(=N)N6C6OC(CO)C(O)C(O)C6O)NC(=O)C(C(O)C6CNC(=N)N6)NC5=O)cc4)C(O)C3O)C(O)C(O)C2O1 (stereo not shown)
Output line: 2 µg/mL

Input line: Using known records, supply MIC Staphylococcus aureus-SMITH (GC 4543) for CC(c1ccccc1)C1NC(=O)CNC(=O)C(CO)NC(=O)C(C(O)C2CNC(=N)N2C2OC(CO)C(O)C(O)C2O)NC(=O)C(C(O)C2CNC(=N)N2)NC(=O)C(Cc2ccc(OC3OC(CO)C(OC4OC5COC(CC(C)(C)C)OC5C(O)C4O)C(O)C3O)cc2)NC1=O (stereo not shown)
Output line: 1 µg/mL

Input line: Using known records, supply MIC Staphylococcus aureus-SMITH (GC 4543) for CCOc1cc(C2OCC3OC(OC4C(CO)OC(Oc5ccc(CC6NC(=O)C(C(C)c7ccccc7)NC(=O)CNC(=O)C(CO)NC(=O)C(C(O)C7CNC(=N)N7C7OC(CO)C(O)C(O)C7O)NC(=O)C(C(O)C7CNC(=N)N7)NC6=O)cc5)C(O)C4O)C(O)C(O)C3O2)ccc1OC (stereo not shown)
Output line: 8 µg/mL
